- Measured Target: EGFR (mutated) 695-1022, T790M, C797S, L858R (Homo sapiens (Human), UniProt P00533, C797S/L858R/T790M)
- Sequence (P00533 695-1022 T790M/C797S/L858R): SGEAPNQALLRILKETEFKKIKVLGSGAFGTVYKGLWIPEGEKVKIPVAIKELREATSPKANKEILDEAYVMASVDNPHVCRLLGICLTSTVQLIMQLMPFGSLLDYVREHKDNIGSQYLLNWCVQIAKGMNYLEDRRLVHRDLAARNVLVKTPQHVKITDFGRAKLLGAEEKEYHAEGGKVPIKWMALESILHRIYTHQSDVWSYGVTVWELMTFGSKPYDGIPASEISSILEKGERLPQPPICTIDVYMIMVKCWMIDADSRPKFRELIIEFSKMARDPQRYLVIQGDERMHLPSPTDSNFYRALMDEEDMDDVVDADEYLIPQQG
- Protocol Text: Biochemical EGFR inhibition assay (TR-FRET, poly-GT substrate), EGFR T790M C797S L858R
- Particulars: read-out: LR_TM_CS (5 μM ATP) IC50; 5 μM ATP
pIC50: −log10 of the molar value.
Test Readout: pIC50

| Molecule | Endpoint Result |
| --- | --- |
| Cc1cc(C(=O)/N=c2\[nH]c3cc(CN4CCOCC4)ccc3n2[C@H]2CCC[C@H](O)C2)cc(-c2cnn(C)c2)n1 | 8.09 |
| CC(C)(O)Cn1/c(=N/C(=O)c2ccnc(-c3ccccc3)c2)[nH]c2ccccc21 | 7.88 |
| Cn1cc(-c2cc(C(=O)/N=c3\[nH]c4cc(CCCO)ccc4n3CC(C)(C)O)ccn2)cn1 | 8.11 |
| O=C(/N=c1\[nH]c2ccccc2n1[C@H]1CC[C@@H](O)CC1)c1ccnc(-c2ccccc2)c1 | 8.74 |
| Cn1cc(-c2cc(C(=O)/N=c3\[nH]c4ccccc4n3[C@H]3CCC[C@H](O)C3)cc(C#N)n2)cn1 | 8.37 |
| COc1ccncc1-c1cc(C(=O)/N=c2\[nH]c3cc(CN4CCOCC4)ccc3n2[C@H]2CC[C@@H](O)CC2)cc(C#N)n1 | 8.52 |
| Cn1cc(-c2cc(C(=O)/N=c3\[nH]c4ccccc4n3[C@H]3COC[C@H](O)C3)ccn2)cn1 | 8.30 |
| C#Cc1cc(C(=O)/N=c2\[nH]c3ccccc3n2[C@H]2CC[C@@H](O)CC2)cc(-c2cnn(C)c2)n1 | 8.06 |
| COc1ccccc1-c1cc(C(=O)/N=c2\[nH]c3ccccc3n2[C@H]2CCC[C@@H](O)C2)ccn1 | 9.15 |
| COc1ccccc1-c1cc(C(=O)/N=c2\[nH]c3cc(CN4CCOCC4)ccc3n2[C@H]2CCC[C@H](O)C2)ccn1 | 8.77 |
| Cn1cc(-c2cc(C(=O)/N=c3\[nH]c4cc(CC#N)ccc4n3CC(C)(C)O)ccn2)cn1 | 8.17 |
| Cc1cc(C(=O)/N=c2\[nH]c3ccc(C4CCN(C)CC4)cc3n2[C@H]2CC[C@@H](O)CC2)cc(-c2cnn(C)c2)n1 | 9.40 |
| CC(=O)N1CCC(c2ccc3c(c2)[nH]/c(=N\C(=O)c2ccnc(-c4cnn(C)c4)c2)n3[C@H]2CC[C@@H](O)CC2)CC1 | 9.40 |
| Cn1cc(-c2cc(C(=O)/N=c3\[nH]c4cc(CN5CCOCC5)ccc4n3[C@H]3CC[C@@H](O)CC3)cc(C#N)n2)cn1 | 8.77 |
| CC(C)Cn1/c(=N/C(=O)c2ccnc(-c3cnn(C)c3)c2)[nH]c2ccccc21 | 8.72 |
| Cc1cc(C(=O)/N=c2\[nH]c3ccc(CN4CCN(C)CC4)cc3n2[C@H]2CC[C@@H](O)CC2)cc(-c2cnn(C)c2)n1 | 9.22 |
| Cc1cc(C(=O)/N=c2\[nH]c3ccccc3n2[C@H]2CC[C@@H](O)CC2)cc(-c2cnn(C)c2)n1 | 8.72 |
| Cn1cc(-c2cc(C(=O)/N=c3\[nH]c4ccccc4n3[C@H]3CCC[C@H](O)C3)ccn2)cn1 [I-116] | 9.15 |
| Cc1cc(C(=O)/N=c2\[nH]c3ccccc3n2C2CCCS(=O)(=O)C2)cc(-c2cnn(C)c2)n1 (stereo not drawn) | 7.48 |
| COc1ccncc1-c1cc(C(=O)/N=c2\[nH]c3ccccc3n2[C@H]2CC[C@@H](O)CC2)cc(C#N)n1 | 8.34 |
| COc1cc(F)ccc1-c1cc(C(=O)/N=c2\[nH]c3ccccc3n2[C@H]2CC[C@@H](O)CC2)ccn1 | 8.55 |
| Cn1cc(-c2cc(C(=O)/N=c3\[nH]c4ccccc4n3[C@H]3CCC[C@@H](O)C3)ccn2)cn1 [I-126] | 8.51 |
| COc1ccc(F)cc1-c1cc(C(=O)/N=c2\[nH]c3ccccc3n2[C@H]2CC[C@@H](O)CC2)ccn1 | 8.34 |
| CN(C)Cc1cccc(-c2cc(C(=O)/N=c3\[nH]c4ccccc4n3CC(C)(C)O)ccn2)c1 | 9.00 |
| CNc1cc(C(=O)/N=c2\[nH]c3ccccc3n2[C@H]2CC[C@@H](O)CC2)cc(-c2cnn(C)c2)n1 | 8.31 |
| CC(C)(O)Cn1/c(=N/C(=O)c2ccnc(-c3cccnc3)c2)[nH]c2cc(CCO)ccc21 | 6.93 |
| COc1ccccc1-c1cc(C(=O)/N=c2\[nH]c3cc(C4CCN(C(C)=O)C4)ccc3n2CC(C)(C)O)ccn1 (stereo not drawn) | 8.82 |
| O=C(/N=c1\[nH]c2ccccc2n1[C@H]1CC[C@@H](O)CC1)c1ccnc(-c2ccc(F)cc2F)c1 | 8.32 |
| Cc1cc(C(=O)/N=c2\[nH]c3ccc(CN4CCOCC4)cc3n2[C@H]2CC[C@@H](O)CC2)cc(-c2cnn(C)c2)n1 | 8.74 |
| COc1ccccc1-c1cc(C(=O)/N=c2\[nH]c3ccccc3n2CC(C)(C)O)ccn1 | 9.15 |
